Could you please report measured log10 IC50 for the items listed next?
Biological target: Protein deacetylase HDAC6 (Homo sapiens, UniProt Q9UBN7)
Sequence (Q9UBN7 whole entry): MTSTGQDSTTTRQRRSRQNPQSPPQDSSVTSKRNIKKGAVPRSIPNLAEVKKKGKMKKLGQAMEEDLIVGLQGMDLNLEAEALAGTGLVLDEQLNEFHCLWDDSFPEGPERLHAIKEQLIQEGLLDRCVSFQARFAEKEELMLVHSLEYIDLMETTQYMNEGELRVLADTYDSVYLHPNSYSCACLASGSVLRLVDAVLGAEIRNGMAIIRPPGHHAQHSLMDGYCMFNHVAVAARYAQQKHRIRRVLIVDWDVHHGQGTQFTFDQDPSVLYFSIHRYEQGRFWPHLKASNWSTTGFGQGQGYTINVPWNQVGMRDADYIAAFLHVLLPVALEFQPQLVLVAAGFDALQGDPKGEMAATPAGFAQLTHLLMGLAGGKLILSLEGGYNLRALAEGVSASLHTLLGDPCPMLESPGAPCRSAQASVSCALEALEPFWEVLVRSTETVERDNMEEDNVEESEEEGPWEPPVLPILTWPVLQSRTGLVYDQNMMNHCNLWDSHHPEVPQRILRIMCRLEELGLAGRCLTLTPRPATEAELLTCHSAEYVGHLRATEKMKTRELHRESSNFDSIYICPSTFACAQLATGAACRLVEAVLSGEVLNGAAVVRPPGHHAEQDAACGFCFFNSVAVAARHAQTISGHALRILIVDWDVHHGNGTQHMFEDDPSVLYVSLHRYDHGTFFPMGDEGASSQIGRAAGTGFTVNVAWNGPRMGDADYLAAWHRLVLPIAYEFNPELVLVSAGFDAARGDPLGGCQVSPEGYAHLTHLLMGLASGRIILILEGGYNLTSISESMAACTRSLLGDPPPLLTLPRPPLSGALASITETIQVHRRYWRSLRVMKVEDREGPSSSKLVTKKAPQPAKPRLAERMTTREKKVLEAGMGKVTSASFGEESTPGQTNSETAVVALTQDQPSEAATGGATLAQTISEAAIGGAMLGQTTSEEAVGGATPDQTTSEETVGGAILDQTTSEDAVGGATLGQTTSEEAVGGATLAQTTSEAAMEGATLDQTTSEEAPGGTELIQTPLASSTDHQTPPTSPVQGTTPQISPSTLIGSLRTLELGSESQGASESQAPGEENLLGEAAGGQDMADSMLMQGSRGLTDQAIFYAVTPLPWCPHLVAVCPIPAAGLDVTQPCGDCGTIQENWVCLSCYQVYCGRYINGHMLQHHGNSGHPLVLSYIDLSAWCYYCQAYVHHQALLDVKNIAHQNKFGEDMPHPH
Experiment: Inhibition of human recombinant HDAC6 using fluorogenic substrate measured after 30 mins
Response schema: value (number) is log10 of IC50 in units of nM.

[Q] log10 IC50 of O=C(NO)c1ccc(Cn2ncnc2-c2cccs2)cc1 on Protein deacetylase HDAC6 (Homo sapiens, UniProt Q9UBN7)?
[A] 1.26

[Q] log10 IC50 of O=C(NO)c1ccc(Cn2ncnc2-c2ccccc2)cc1 on Protein deacetylase HDAC6 (Homo sapiens, UniProt Q9UBN7)?
[A] 1.23

[Q] log10 IC50 of O=C(NO)c1cccc(Cn2cnc(-c3ccccc3)n2)c1 on Protein deacetylase HDAC6 (Homo sapiens, UniProt Q9UBN7)?
[A] 3.11

[Q] log10 IC50 of O=C(NO)c1ccc(Cn2cnc(-c3c(F)cccc3F)n2)cc1 on Protein deacetylase HDAC6 (Homo sapiens, UniProt Q9UBN7)?
[A] 1.16

[Q] log10 IC50 of O=C(NO)c1ccc(Cn2cnc(-c3cccc(O)c3)n2)cc1 on Protein deacetylase HDAC6 (Homo sapiens, UniProt Q9UBN7)?
[A] 1.09

[Q] log10 IC50 of O=C(NO)c1ccc(Cn2cnc(-c3ccccc3F)n2)c(F)c1 on Protein deacetylase HDAC6 (Homo sapiens, UniProt Q9UBN7)?
[A] 0.85
